- Tested target: recombinant human MPC1L/MPC2 (Homo sapiens, UniProt O95563+P0DKB6)
- Construct: MPC1L (2–136); MPC2 (2–137); eight-histidine tag (C, cleaved yes); TEV protease cleavage site (part stays on MPC2 after digestion) (C, cleaved yes); made in house; host or cells: Saccharomyces cerevisiae SHY15 (mpc triple deletion strain), purified from mitochondria
- Assay overview: Electrospray mass spectrometry of MPC1L/MPC2 after reaction with inhibitors or sulfhydryl modifiers
- Run parameters: MPC1L/MPC2 after reaction with compound
Measured quantity: Mass difference (observed vs calculated), MPC1L (5–136) (Da)
Your answer is read as Da, so omit the unit and give the number.

{"Compound": "N#CC(=Cc1cn(-c2ccccc2)c2ccccc12)C(=O)O [UK5099, α-cyano-β-(1-phenylindol-3-yl)-acrylate]", "Experimental value": 0.6}
{"Compound": "CCCOc1ccccc1-c1nc2nn[nH]c2c(=O)[nH]1", "Experimental value": 0.3}

Kindly review the next compound as well.
Query string: Find the measured Mass difference (observed vs calculated), MPC1L (5–136): item N#C/C(=C/c1ccc(-c2ccccc2[N+](=O)[O-])o1)C(=O)O , target or system recombinant human MPC1L/MPC2 (Homo sapiens, UniProt O95563+P0DKB6).
Result string: 0.9

====

- Tested target: recombinant human MPC1L/MPC2 (Homo sapiens, UniProt O95563+P0DKB6)
- Construct: MPC1L (2–136); MPC2 (2–137); eight-histidine tag (C, cleaved yes); TEV protease cleavage site (part stays on MPC2 after digestion) (C, cleaved yes); made in house; host or cells: Saccharomyces cerevisiae SHY15 (mpc triple deletion strain), purified from mitochondria
- Sequence (P0DKB6 2-136 limits assumed): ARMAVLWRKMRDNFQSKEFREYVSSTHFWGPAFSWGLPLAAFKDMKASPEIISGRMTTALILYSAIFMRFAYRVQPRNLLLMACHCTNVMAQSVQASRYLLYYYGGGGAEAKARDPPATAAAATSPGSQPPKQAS
- Sequence (O95563 2-127 limits assumed): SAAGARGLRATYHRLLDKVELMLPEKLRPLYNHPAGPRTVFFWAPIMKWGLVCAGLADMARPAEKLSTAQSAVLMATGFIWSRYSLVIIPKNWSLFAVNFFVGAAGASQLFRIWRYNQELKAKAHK
- Assay overview: Electrospray mass spectrometry of MPC1L/MPC2 after reaction with inhibitors or sulfhydryl modifiers
- Run parameters: folded MPC1L/MPC2 incubated with compound, ESI-MS
Measured quantity: Covalent modification of MPC protomers (molecular mass change)

{"Molecule": "CS(=O)(=O)SCCN [MTSEA]", "Tested target": "recombinant human MPC1L/MPC2 (Homo sapiens, UniProt O95563+P0DKB6)", "Experimental value": "modified covalently"}
{"Molecule": "CCN1C(=O)C=CC1=O [NEM]", "Tested target": "recombinant human MPC1L/MPC2 (Homo sapiens, UniProt O95563+P0DKB6)", "Experimental value": "modified covalently"}

====

- Tested target: human MPC1L/MPC2 complex (Homo sapiens, UniProt O95563+P0DKB6)
- Construct: eight-histidine tag (C, cleaved yes); TEV protease cleavage site (part stays on MPC2 after digestion) (C, cleaved yes); made in house; host or cells: Saccharomyces cerevisiae SHY15 (mpc triple deletion strain), purified from mitochondria
- Assay overview: CPM thermostability shift assay, purified MPC1L/MPC2
- Type: binding
- Run parameters: inhibitor 100 μM; read-out: ∆Tm, CPM assay (thermal shift compared to no-ligand control)
Decide using ΔTm at 100 µM: a value greater than or equal to 8 °C is True, a smaller one is False.

Answered examples (4):
{"Compound": "CCc1ccc(CCOc2ccc(CC3SC(=O)NC3=O)cc2)nc1 (centres unmarked)", "Group label": "False"}
{"Compound": "CCCOc1ccccc1-c1nc2nn[nH]c2c(=O)[nH]1", "Group label": "False"}
{"Compound": "N#CC(=Cc1cn(-c2ccccc2)c2ccccc12)C(=O)O [UK5099, α-cyano-β-(1-phenylindol-3-yl)-acrylate]", "Group label": "True"}
{"Compound": "CCCC(CCC)C(=O)O", "Group label": "False"}

Query string: # check: ΔTm at 100 µM of N#C/C(=C/c1ccc(-c2ccc(F)cc2)o1)C(=O)O is greater than or equal to 8 °C
Result string: True

Query string: Do the same for N#C/C(=C/c1ccc(-c2cccc([N+](=O)[O-])c2)o1)C(=O)O please
Result string: True

Query string: Do the same for COc1cc(C2Oc3cc([C@H]4Oc5cc(O)cc(O)c5C(=O)[C@@H]4O)ccc3OC2CO)ccc1O (some centres unmarked) please
Result string: False

Query string: Do the same for CCc1ccc(C(=O)COc2ccc(CC3SC(=O)NC3=O)cc2)nc1 (centres unmarked) please
Result string: False
